# tested-system: Fes (UniProt P07332)
# Sequence (P07332 whole entry, looked up): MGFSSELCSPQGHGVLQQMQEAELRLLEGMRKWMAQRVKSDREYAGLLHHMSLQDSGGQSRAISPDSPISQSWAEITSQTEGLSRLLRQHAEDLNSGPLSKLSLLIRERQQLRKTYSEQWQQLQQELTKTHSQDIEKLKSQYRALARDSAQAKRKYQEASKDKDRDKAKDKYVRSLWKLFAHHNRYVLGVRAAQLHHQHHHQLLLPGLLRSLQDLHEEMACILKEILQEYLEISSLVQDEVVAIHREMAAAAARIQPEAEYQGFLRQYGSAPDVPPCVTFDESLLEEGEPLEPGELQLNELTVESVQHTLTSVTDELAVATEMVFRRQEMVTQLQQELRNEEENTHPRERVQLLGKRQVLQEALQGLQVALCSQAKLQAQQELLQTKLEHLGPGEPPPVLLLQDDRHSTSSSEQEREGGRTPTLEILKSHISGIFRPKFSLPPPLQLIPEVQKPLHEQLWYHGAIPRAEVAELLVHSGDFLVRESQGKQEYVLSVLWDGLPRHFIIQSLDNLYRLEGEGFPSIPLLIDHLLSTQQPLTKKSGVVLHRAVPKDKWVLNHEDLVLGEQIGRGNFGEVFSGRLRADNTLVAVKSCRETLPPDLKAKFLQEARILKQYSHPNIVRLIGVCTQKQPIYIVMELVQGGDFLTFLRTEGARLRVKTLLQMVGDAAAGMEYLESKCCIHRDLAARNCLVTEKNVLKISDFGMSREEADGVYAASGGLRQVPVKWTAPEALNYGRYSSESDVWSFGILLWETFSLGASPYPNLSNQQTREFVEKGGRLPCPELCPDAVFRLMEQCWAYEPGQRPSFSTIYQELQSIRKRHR
# test-name: phosphorylation enrichment, bacterial display (enrichment ratio); higher = better substrate or ligand; peptides without Tyr show the background
Tag: True if measured phosphorylation enrichment is not below 0.9, False if it is.

Examples from the recorded data:
INSERT INTO results (sequence_chain, label_value) VALUES
  ('LVPAWYIGFLC [KCNQ2_Y237_T234P]', 'True'),
  ('KVIDMYLMGCF [GABRB2_Y308_A304V]', 'True'),
  ('PLDGEYFTLQV [TP53_Y327_I332V]', 'True'),
  ('WVFNHYRCIIW [BRCA2_Y2624_W2626C_YF]', 'True'),
  ('FGLPRYRWLTH [TSPAN12_Y143_YF]', 'False');

# bool: phosphorylation enrichment of DLDTDYGSGFP [RNASEH2A_Y206_YF] >= 0.9
True

# bool: phosphorylation enrichment of DNLSNYVFQGQ [GRIN2A_Y978_N976S] >= 0.9
False

# bool: phosphorylation enrichment of HLRAGYIIPLQ [GAA_Y822] >= 0.9
False

# bool: phosphorylation enrichment of EILTQYEAMAS [GFAP_Y242_R239L] >= 0.9
True

# bool: phosphorylation enrichment of TLDTDYQMTKR [ADA_Y308] >= 0.9
False

# bool: phosphorylation enrichment of DQLVKHGVNPG [TMPO_Y127_Y127H] >= 0.9
False

# bool: phosphorylation enrichment of INMKEYCKKDY [NTN1_Y490_K489E] >= 0.9
True

# bool: phosphorylation enrichment of VRQQVYKKVEE [HADHA_Y283] >= 0.9
False

----------
# Tested on: AncSZ
# test-name: phosphorylation enrichment, bacterial display (enrichment ratio); higher = better substrate or ligand; peptides without Tyr show the background
Recorded phosphorylation enrichment values for a group of sequences are listed next.
Write no unit; give the number alone.

The observed phosphorylation enrichment for DEWFLYKMRDI [CPS1_Y879_K875E] when tested with AncSZ stands at 1.25

The observed phosphorylation enrichment for MTFVFYRENLR [NLRP14_Y443_YF] when tested with AncSZ stands at 1.42

The observed phosphorylation enrichment for CTTIHYIYMCN [TP53_Y234_N235I] when tested with AncSZ stands at 0.728

The observed phosphorylation enrichment for WHYTFYNELRV [ACTC1_Y93_H90Y] when tested with AncSZ stands at 1.39

----------
# tested-system: c-Src SH2;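 note: peptide library displayed on the E. coli surface as eCPX fusions, selected cells deep-sequenced, score is each peptide's frequency after selection divided by its frequency in the input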
# test-name: SH2 binding enrichment of the phosphorylated peptide, bacterial display (enrichment ratio); higher = better substrate or ligand; peptides without Tyr show the background
observation-type: SH2 binding enrichment
Write no unit; give the number alone.

Check out these entries, answers already filled in.
INSERT INTO results (sequence_chain, observation_type, measured_result) VALUES
  ('IDSTPYGQWYE [RPS8_Y109_R110G]', 'SH2 binding enrichment', 0.849),
  ('IPVNGYQPVPA [ROR2_Y824_V819I]', 'SH2 binding enrichment', 0.756),
  ('HFGNNYTDVLQ [MACC1_Y803_R804T_YF]', 'SH2 binding enrichment', 3.44),
  ('ADLLDYIKALN [HPRT1_Y81]', 'SH2 binding enrichment', 0.468),
  ('VNFGAYINDFK [GLB1_Y488_YF]', 'SH2 binding enrichment', 0.625),
  ('LHSEAYLKYNE [PBRM1_Y1610_I1614N]', 'SH2 binding enrichment', 0.497),
  ('KLPYPYDDPFS [GPX2_Y127]', 'SH2 binding enrichment', 3.58),
  ('ATPKGYETDAS [OTC_Y223_P225T]', 'SH2 binding enrichment', 0.56);

SH2 binding enrichment recorded for this sequence, WCKPPYFSCAV [MMS22L_Y28] , is 1.34

SH2 binding enrichment recorded for this sequence, FCRIMYDIFPF [INTS13_Y67_YF] , is 0.8

SH2 binding enrichment recorded for this sequence, HLGNQYVNVMN [SLC3A1_Y461_R456H] , is 4

----------
# tested-system: MERTK (UniProt Q12866)
# Sequence (Q12866 whole entry, looked up): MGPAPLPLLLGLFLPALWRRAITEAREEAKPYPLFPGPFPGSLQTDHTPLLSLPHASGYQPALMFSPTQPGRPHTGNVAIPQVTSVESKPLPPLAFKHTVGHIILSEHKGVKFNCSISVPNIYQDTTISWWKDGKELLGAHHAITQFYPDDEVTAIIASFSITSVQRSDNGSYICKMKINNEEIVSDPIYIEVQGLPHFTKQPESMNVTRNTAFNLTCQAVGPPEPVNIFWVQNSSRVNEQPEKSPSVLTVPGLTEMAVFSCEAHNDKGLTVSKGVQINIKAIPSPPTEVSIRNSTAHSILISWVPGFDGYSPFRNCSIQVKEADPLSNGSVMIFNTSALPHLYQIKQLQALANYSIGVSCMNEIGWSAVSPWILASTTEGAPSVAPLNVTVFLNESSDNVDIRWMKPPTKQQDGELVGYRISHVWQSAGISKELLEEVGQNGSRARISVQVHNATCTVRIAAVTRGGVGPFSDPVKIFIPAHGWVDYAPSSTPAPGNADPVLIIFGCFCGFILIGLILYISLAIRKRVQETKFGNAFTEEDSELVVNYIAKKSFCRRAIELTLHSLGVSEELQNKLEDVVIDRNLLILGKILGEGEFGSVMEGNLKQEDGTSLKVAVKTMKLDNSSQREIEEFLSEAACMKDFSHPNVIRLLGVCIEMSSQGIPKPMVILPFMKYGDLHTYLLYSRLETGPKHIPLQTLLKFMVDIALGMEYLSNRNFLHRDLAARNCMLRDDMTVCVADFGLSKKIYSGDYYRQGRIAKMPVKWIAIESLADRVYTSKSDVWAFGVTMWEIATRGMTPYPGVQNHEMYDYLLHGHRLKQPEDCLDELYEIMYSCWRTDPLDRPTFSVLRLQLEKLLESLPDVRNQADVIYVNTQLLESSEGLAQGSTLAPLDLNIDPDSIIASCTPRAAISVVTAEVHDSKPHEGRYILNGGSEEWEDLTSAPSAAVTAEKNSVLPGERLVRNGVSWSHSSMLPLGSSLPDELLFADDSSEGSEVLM
# test-name: phosphorylation enrichment, bacterial display (enrichment ratio); higher = better substrate or ligand; peptides without Tyr show the background
Each entry belongs to exactly one class, chosen by where its phosphorylation enrichment falls: low (below 0.4), medium (0.4 to below 0.5), high (0.5 or more)

Examples from the recorded data:
INSERT INTO assay_data (sequence_chain, tested_system, label_value) VALUES
  ('TLRETYGEMAD [ALB_Y108]', 'MERTK (UniProt Q12866)', 'medium'),
  ('MSLRSYGSREG [APC_Y96]', 'MERTK (UniProt Q12866)', 'medium'),
  ('DVFVSYDCGKS [SORL1_Y139_Y141C_YF]', 'MERTK (UniProt Q12866)', 'low'),
  ('RSIGEYDVLRG [PRKDC_Y2936]', 'MERTK (UniProt Q12866)', 'high'),
  ('TDEFEYDELIV [TGM1_Y136_YF]', 'MERTK (UniProt Q12866)', 'high');

Using the reported phosphorylation enrichment, which band applies to PRSRSYSSTSI [REPS2_Y462] ?
high

Using the reported phosphorylation enrichment, which band applies to ATARPYSPFII [LRP5_Y1528_R1529S_YF] ?
high

Using the reported phosphorylation enrichment, which band applies to CTTIHYIYMCN [TP53_Y234_N235I] ?
low

----------
# tested-system: EPHB1 (UniProt P54762)
# Sequence (P54762 whole entry, looked up): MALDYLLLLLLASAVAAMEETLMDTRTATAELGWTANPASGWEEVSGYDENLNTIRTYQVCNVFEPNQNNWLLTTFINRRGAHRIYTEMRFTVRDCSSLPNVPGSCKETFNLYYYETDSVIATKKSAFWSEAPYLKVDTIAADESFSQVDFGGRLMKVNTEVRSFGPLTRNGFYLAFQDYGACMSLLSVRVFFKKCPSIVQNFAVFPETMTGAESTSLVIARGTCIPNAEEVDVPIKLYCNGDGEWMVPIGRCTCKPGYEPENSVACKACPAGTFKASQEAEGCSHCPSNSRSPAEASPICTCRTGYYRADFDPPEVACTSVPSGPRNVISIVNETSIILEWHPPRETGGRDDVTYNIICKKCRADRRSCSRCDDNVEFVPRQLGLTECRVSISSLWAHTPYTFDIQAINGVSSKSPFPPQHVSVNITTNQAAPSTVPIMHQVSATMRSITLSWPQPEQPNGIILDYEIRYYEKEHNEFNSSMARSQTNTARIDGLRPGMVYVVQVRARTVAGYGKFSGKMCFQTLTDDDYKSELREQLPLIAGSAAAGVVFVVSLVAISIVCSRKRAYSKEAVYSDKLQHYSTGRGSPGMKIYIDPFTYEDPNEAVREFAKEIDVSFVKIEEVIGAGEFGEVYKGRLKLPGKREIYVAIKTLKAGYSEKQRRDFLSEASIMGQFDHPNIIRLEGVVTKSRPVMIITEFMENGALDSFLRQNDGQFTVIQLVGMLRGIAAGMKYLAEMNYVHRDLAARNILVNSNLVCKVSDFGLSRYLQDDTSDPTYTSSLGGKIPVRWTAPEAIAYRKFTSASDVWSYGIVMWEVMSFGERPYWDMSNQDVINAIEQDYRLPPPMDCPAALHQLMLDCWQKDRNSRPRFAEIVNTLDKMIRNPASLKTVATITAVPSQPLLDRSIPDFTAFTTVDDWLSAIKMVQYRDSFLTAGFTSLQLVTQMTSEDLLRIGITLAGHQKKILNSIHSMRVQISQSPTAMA
# test-name: phosphorylation enrichment, bacterial display (enrichment ratio); higher = better substrate or ligand; peptides without Tyr show the background
Tag: YES if measured phosphorylation enrichment is not below 0.7, NO if it is.

Examples from the recorded data:
INSERT INTO assay_data (sequence_chain, label_value) VALUES
  ('ALAHKYPGGGG [HBB_Y146_H147P]', 'YES'),
  ('SIKDKYVTALF [KCNH2_Y611_YF]', 'NO'),
  ('RASGIYYVPKG [APBB1IP_Y340]', 'YES'),
  ('DDSNPYINVKL [MTHFD1_Y52_L51P]', 'NO'),
  ('FFRDGCMPRQF [GSS_Y270_Y270C_YF]', 'NO');

# bool: phosphorylation enrichment of FARNSYVAGQF [G6PD_Y107_YF] >= 0.7
NO

# bool: phosphorylation enrichment of PGPQSYPTVTG [PAX5_Y299_I301T] >= 0.7
YES

# bool: phosphorylation enrichment of KWLEQYTQAIE [LSP1_Y234_Q229K] >= 0.7
NO

# bool: phosphorylation enrichment of CTTIHYYYMCN [TP53_Y234_N235Y] >= 0.7
NO

# bool: phosphorylation enrichment of RYVSRYIYNRE [HLA-DQB1_Y62_T60S] >= 0.7
YES

# bool: phosphorylation enrichment of LARHMYDKEFF [MET_Y1230_D1228H_YF] >= 0.7
NO

----------
Recorded phosphorylation enrichment values for a group of sequences are listed next.
# tested-system: Fes (UniProt P07332)
# test-name: phosphorylation enrichment, bacterial display (enrichment ratio); higher = better substrate or ligand; peptides without Tyr show the background
Write no unit; give the number alone.

Check out these entries, answers already filled in.
INSERT INTO results (sequence_chain, tested_system, observation_type, measured_result) VALUES
  ('ERIEFYELDKK [PMM2_Y145]', 'Fes (UniProt P07332)', 'phosphorylation enrichment', 1.09),
  ('ADRSCYDLSCH [GARS1_Y467]', 'Fes (UniProt P07332)', 'phosphorylation enrichment', 0.91),
  ('FPHVIYARLWR [SMAD4_Y95]', 'Fes (UniProt P07332)', 'phosphorylation enrichment', 0.85);

phosphorylation enrichment recorded for this sequence, IDDNEYAFLKA [HNF4A_Y286_YF] , is 1.32

phosphorylation enrichment recorded for this sequence, MENFIYESMRF [CYP19A1_Y361_YF] , is 5.1

phosphorylation enrichment recorded for this sequence, ESTPLYPMLFG [SCLY_Y280_F276S] , is 0.969

phosphorylation enrichment recorded for this sequence, EKDSNYCLCRT [ASIC2_Y357] , is 0.883

phosphorylation enrichment recorded for this sequence, DFSLKYATDIP [APC_Y1183_YF] , is 1.08

phosphorylation enrichment recorded for this sequence, IWGKKYPTCNS [PTPRZ1_Y53_N48I] , is 0.776

----------
# tested-system: Fyn (UniProt P06241)
# Sequence (P06241 whole entry, looked up): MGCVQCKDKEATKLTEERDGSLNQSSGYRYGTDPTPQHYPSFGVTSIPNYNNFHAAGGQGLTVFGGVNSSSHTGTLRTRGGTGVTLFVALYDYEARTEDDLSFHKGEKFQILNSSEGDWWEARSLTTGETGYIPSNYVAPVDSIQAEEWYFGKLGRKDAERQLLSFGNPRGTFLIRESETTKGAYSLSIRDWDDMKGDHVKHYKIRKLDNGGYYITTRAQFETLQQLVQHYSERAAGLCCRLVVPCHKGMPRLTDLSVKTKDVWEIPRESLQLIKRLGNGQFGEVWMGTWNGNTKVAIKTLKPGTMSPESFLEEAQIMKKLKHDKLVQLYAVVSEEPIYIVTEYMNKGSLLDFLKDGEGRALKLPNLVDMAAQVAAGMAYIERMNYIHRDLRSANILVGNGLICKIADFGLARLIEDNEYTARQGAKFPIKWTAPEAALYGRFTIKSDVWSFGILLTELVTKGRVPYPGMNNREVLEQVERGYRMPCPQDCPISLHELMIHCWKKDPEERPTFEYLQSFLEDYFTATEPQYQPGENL
# test-name: phosphorylation enrichment, bacterial display (enrichment ratio); higher = better substrate or ligand; peptides without Tyr show the background
Tag: Met if measured phosphorylation enrichment is not below 0.6, Not met if it is.

INSERT INTO results (sequence_chain, tested_system, label_value) VALUES
  ('LTQRTYMSENA [GPAA1_Y49]', 'Fyn (UniProt P06241)', 'Not met'),
  ('GMRHGHGVRQS [JPH2_Y141_Y141H]', 'Fyn (UniProt P06241)', 'Not met');

# bool: phosphorylation enrichment of IKKFKYRIEEH [GJA1_Y137_G138R] >= 0.6
Not met

# bool: phosphorylation enrichment of QEIATYRPLLE [KRT14_Y415_R417P] >= 0.6
Met

# bool: phosphorylation enrichment of GMTRNYIIFIE [BCO2_Y294] >= 0.6
Not met

# bool: phosphorylation enrichment of GVRYIYTIDGS [DCX_Y105] >= 0.6
Met

# bool: phosphorylation enrichment of KPLMPCMRFSR [SMARCE1_Y73_Y73C_YF] >= 0.6
Not met

Just for reference, the supplement of paper PMC10065799 is where these values come from.
